- tested_target: HIV-1 Protease (Human immunodeficiency virus type 1 group M subtype B (isolate HXB2) (HIV-1), UniProt P04585)
- assay_procedure: Enzymatic (FRET fluorometric) assay for determining the inhibition constant (Ki) of compounds targeting the HIV protease
- recorded_conditions: read-out: IC50 ENZYME HIV-1 Protease
metric_name: IC50 (nM)

In [3]: df
Out[3]:
                                   molecule  unit_tag  readout_value
0  Cc1ccccc1C[C@H](NC(=O)c1cccnc1)C(=O)NCCCC[C@@H](CO)N(CC(C)C)S(=O)(=O)c1ccc(N)cc1 [EX 20]        nM           1.42
1  Cc1ccc(C(=O)N[C@@H](Cc2ccccc2Br)C(=O)NCCCC[C@@H](CO)N(CC(C)C)S(=O)(=O)c2ccc(N)cc2)cn1 [EX. 40]        nM          0.567
2  Cc1ccccc1C[C@H](NC(=O)c1ccncc1)C(=O)NCCCC[C@@H](CO)N(CC(C)C)S(=O)(=O)c1ccc(N)cc1 [EX 22]        nM           1.35
3  CC(C)CN([C@H](CO)CCCCNC(=O)[C@@H](NC(=O)N1CCOCC1)C(c1ccccc1)c1ccccc1)S(=O)(=O)c1ccc2c(c1)CCO2 [EX 34]        nM          0.963

---

- tested_target: HIV-1 Protease (Human immunodeficiency virus type 1 group M subtype B (isolate HXB2) (HIV-1), UniProt P04585)
- assay_procedure: Enzymatic (FRET fluorometric) assay for determining the inhibition constant (Ki) of compounds targeting the HIV protease
- recorded_conditions: read-out: IC50 ENZYME HIV-1 Protease
pIC50: −log10 of the molar value.
metric_name: pIC50

In [3]: df
Out[3]:
                                   compound  metric_name  readout_value
0  Cc1cccnc1C(=O)N[C@@H](Cc1ccccc1Br)C(=O)NCCCC[C@@H](CO)N(CC(C)C)S(=O)(=O)c1ccc(N)cc1 [EX 36]        pIC50           9.30
1  CC(C)CN([C@H](CO)CCCCNC(=O)[C@@H](NC(=O)NCc1ccncc1)C(c1ccccc1)c1ccccc1)S(=O)(=O)c1ccc(N)cc1 [EX 62]        pIC50           9.29
2  CC(C)CN([C@H](CO)CCCCNC(=O)[C@H](Cc1ccccc1Br)NC(=O)OCc1ccncc1)S(=O)(=O)c1ccc(N)cc1 [EX 38]        pIC50           9.04
3  Cc1ccc(C(=O)N[C@@H](Cc2ccccc2C)C(=O)NCCCC[C@@H](CO)N(CC(C)C)S(=O)(=O)c2ccc(N)cc2)cc1O [EX 63]        pIC50           9.03
4  COC(=O)N[C@H](C(=O)NCCCC[C@@H](CO)N(Cc1cccnc1)S(=O)(=O)c1ccc(N)cc1)C(c1ccccc1)c1ccccc1 [EX. 33]        pIC50           9.00
5  Cc1c(O)cccc1C(=O)N[C@@H](Cc1ccccc1Br)C(=O)NCCCC[C@@H](CO)N(CC(C)C)S(=O)(=O)c1ccc(N)cc1 [EX 18]        pIC50           9.22
